Measured koff accompanies every entry in the list below.
subject-of-test: T1, human SIRP-α v2 D1 domain (human)
T1 construct: also called human v2
assay-method-text: SPR, Langmuir fit

# example entries with known answers
Q: Quick one: give measured koff for S29 (scFv, V domains shown, also called clone 29) VH: DVQLVESGGGVVRPGESLRLSCAVSGFRFSSYAMSWVRQAPGKGLEWVSGISSDSDAYYVDSVKGRFTISRDNSKNTLYLQVNSLTAEDTAVYYCARETWNHLFDYWGLGTMVTVSS VL: ALTQPASVSANLGETVKITCSGGDSSSHYYGWFQQKSPGSAPVTLIYSDDERPSDIPSRFSGSASGSTATLTITGVRVEDEAIYFCGAYDGSTYTNTFGAGTTLTVL
A: 0.000178 s⁻¹

Q: Quick one: give measured koff for S191 (scFv, V domains shown, also called clone 191) VH: DVQLVESGGGVVRPGESLRLSCAASGFSFSSYAMNWVRQAPGEGLEWVSRINSGGGGTDYAESVKGRFTISRDNSENTLYLQMNSLRAEDTAVYYCAKQYDWNGFFDYWGLGALVTVSS VL: ETVLTQSPATLSVSPGERATLSCRASQTVGSKLAWHQQKPGQAPRLLIYDATNRATGIPDRFSGSGSGTDFTLTISGLQTEDSAVYYCQQYYYWPPYRFGGGTKVEIK
A: 3.53e-05 s⁻¹

Further cases:
Q: Quick one: give measured koff for S59 (scFv, V domains shown, also called clone 59) VH: DVQLVESGGGVVRPGESLRLSCAVSGFRFSSHAMSWVRQAPGKGLEWVSGISSGGDTYYVDSVKGRFTISRDNSKNTLYLQVNSLTAEDTAIYYCARETWNHLFDYWGLGTLVTVSS VL: ALTQPASVSANLGETVKITCSGGDSSSHYYGWYQQKSPGSAPVTVIYSDDERPSDIPSRFSGSASGSTATLTITGVRVEDEAIYYCGAYDGSTYANTFGAGTTLTVL
A: 8.63e-05 s⁻¹
